meta.source: patent US8729031B2

System: S. aureus SH1000
Assay type: cell-based
Details: S. aureus SH1000
REPORTED_METRIC: MIC in μg/mL against strain S. aureus SH1000 (µg/mL)

item_smiles=CC[C@H](C)[C@@H]1NC(=O)[C@@H]2NC(=O)[C@H](CC(C)C)NC(=O)[C@H](NC(=O)[C@@H]3CSC[C@@H](N)C(=O)N[C@@H](CO)C(=O)NCC(=O)N[C@@H](Cc4c[nH]c5ccccc45)C(=O)N[C@@H](C(C)C)C(=O)N3)[C@H](C)SC[C@H](NC(=O)[C@H](CCC(=O)O)NC1=O)C(=O)NCC(=O)N[C@H]1C(=O)N[C@@H](CC(C)C)C(=O)N[C@@H](C(C)C)C(=O)N[C@@H](CS[C@H]2C)C(=O)N[C@@H](C)C(=O)N[C@H](C(=O)N2CCN(c3ccc(Cl)c(Cl)c3)CC2)CS[C@H]1C assay_system="S. aureus SH1000" experimental_value=8
item_smiles=CC[C@H](C)[C@@H]1NC(=O)[C@@H]2NC(=O)[C@H](CC(C)C)NC(=O)[C@H](NC(=O)[C@@H]3CSC[C@@H](N)C(=O)N[C@@H](CO)C(=O)NCC(=O)N[C@@H](Cc4c[nH]c5ccccc45)C(=O)N[C@@H](C(C)C)C(=O)N3)[C@H](C)SC[C@H](NC(=O)[C@H](CCC(=O)O)NC1=O)C(=O)NCC(=O)N[C@H]1C(=O)N[C@@H](CC(C)C)C(=O)N[C@@H](C(C)C)C(=O)N[C@@H](CS[C@H]2C)C(=O)N[C@@H](C)C(=O)N[C@H](C(=O)NCc2ccc(F)cc2F)CS[C@H]1C assay_system="S. aureus SH1000" experimental_value=8
item_smiles=CC[C@H](C)[C@@H]1NC(=O)[C@@H]2NC(=O)[C@H](CC(C)C)NC(=O)[C@H](NC(=O)[C@@H]3CSC[C@@H](N)C(=O)N[C@@H](CO)C(=O)NCC(=O)N[C@@H](Cc4c[nH]c5ccccc45)C(=O)N[C@@H](C(C)C)C(=O)N3)[C@H](C)SC[C@H](NC(=O)[C@H](CCC(=O)O)NC1=O)C(=O)NCC(=O)N[C@H]1C(=O)N[C@@H](CC(C)C)C(=O)N[C@@H](C(C)C)C(=O)N[C@@H](CS[C@H]2C)C(=O)N[C@@H](C)C(=O)N[C@H](C(=O)NCCCNCCCNCc2cc(Cl)cc(Cl)c2)CS[C@H]1C assay_system="S. aureus SH1000" experimental_value=8

====

System: S. aureus SH1000
Assay type: cell-based
Settings: S. aureus SH1000
REPORTED_METRIC: MIC in μg/mL against strain S. aureus SH1000 (µg/mL)

item_smiles=CC[C@H](C)[C@@H]1NC(=O)[C@@H]2NC(=O)[C@H](CC(C)C)NC(=O)[C@H](NC(=O)[C@@H]3CSC[C@@H](N)C(=O)N[C@@H](CO)C(=O)NCC(=O)N[C@@H](Cc4c[nH]c5ccccc45)C(=O)N[C@@H](C(C)C)C(=O)N3)[C@H](C)SC[C@H](NC(=O)[C@H](CCC(=O)O)NC1=O)C(=O)NCC(=O)N[C@H]1C(=O)N[C@@H](CC(C)C)C(=O)N[C@@H](C(C)C)C(=O)N[C@@H](CS[C@H]2C)C(=O)N[C@@H](C)C(=O)N[C@H](C(=O)NCCCCCCNS(=O)(=O)c2c(Cl)cc(Cl)cc2Cl)CS[C@H]1C quantity_unit=µg/mL experimental_value=8
item_smiles=CC[C@H](C)[C@@H]1NC(=O)[C@@H]2NC(=O)[C@H](CC(C)C)NC(=O)[C@H](NC(=O)[C@@H]3CSC[C@@H](N)C(=O)N[C@@H](CO)C(=O)NCC(=O)N[C@@H](Cc4c[nH]c5ccccc45)C(=O)N[C@@H](C(C)C)C(=O)N3)[C@H](C)SC[C@H](NC(=O)[C@H](CCC(=O)O)NC1=O)C(=O)NCC(=O)N[C@H]1C(=O)N[C@@H](CC(C)C)C(=O)N[C@@H](C(C)C)C(=O)N[C@@H](CS[C@H]2C)C(=O)N[C@@H](C)C(=O)N[C@H](C(=O)NCCCCCCNCc2cc(Cl)cc(Cl)c2)CS[C@H]1C quantity_unit=µg/mL experimental_value=4

====

Tested on: S. aureus SH1000
Assay type: cell-based
Settings: S. aureus SH1000
REPORTED_METRIC: MIC in μg/mL against strain S. aureus SH1000

item_smiles=CC[C@H](C)[C@@H]1NC(=O)[C@@H]2NC(=O)[C@H](CC(C)C)NC(=O)[C@H](NC(=O)[C@@H]3CSC[C@@H](N)C(=O)N[C@@H](CO)C(=O)NCC(=O)N[C@@H](Cc4c[nH]c5ccccc45)C(=O)N[C@@H](C(C)C)C(=O)N3)[C@H](C)SC[C@H](NC(=O)[C@H](CCC(=O)O)NC1=O)C(=O)NCC(=O)N[C@H]1C(=O)N[C@@H](CC(C)C)C(=O)N[C@@H](C(C)C)C(=O)N[C@@H](CS[C@H]2C)C(=O)N[C@@H](C)C(=O)N[C@H](C(=O)NCc2ccc(Br)cc2)CS[C@H]1C assay_system="S. aureus SH1000" experimental_value="8 µg/mL"

====

System: S. aureus SH1000
Assay type: cell-based
Settings: S. aureus SH1000
REPORTED_METRIC: MIC in μg/mL against strain S. aureus SH1000 (µg/mL)

item_smiles=CC[C@H](C)[C@@H]1NC(=O)[C@@H]2NC(=O)[C@H](CC(C)C)NC(=O)[C@H](NC(=O)[C@@H]3CSC[C@@H](N)C(=O)N[C@@H](CO)C(=O)NCC(=O)N[C@@H](Cc4c[nH]c5ccccc45)C(=O)N[C@@H](C(C)C)C(=O)N3)[C@H](C)SC[C@H](NC(=O)[C@H](CCC(=O)O)NC1=O)C(=O)NCC(=O)N[C@H]1C(=O)N[C@@H](CC(C)C)C(=O)N[C@@H](C(C)C)C(=O)N[C@@H](CS[C@H]2C)C(=O)N[C@@H](C)C(=O)N[C@H](C(=O)N2CCN(Cc3ccc(Br)cc3F)CC2)CS[C@H]1C experimental_value=8
